The origin of these recorded values is ChEMBL document CHEMBL1806425.

test system: HCT-15; test: Cytotoxicity against human HCT15 cells by sulforhodamine B assay; assay type: functional, cell-based
measuredParameter: log10 IC50 (log10 of the value in mg/L)
Answers are given as log10 of IC50 in mg/L.

These recorded examples may help you get a feel for the data.
smilesRepr	observedResult
CNc1nc(-c2ccccc2)nc2ccccc12	1.33
CN1CCN(c2nc(-c3ccccc3)nc3ccccc23)CC1	1.35
CN(C)CCN(C)c1nc(-c2ccccc2)nc2ccccc12	1.42

Turning now to a further record.
Enquiry: Read the entry c1ccc(-c2nc(N3CCOCC3)c3ccccc3n2)cc1 and write its reported log10 IC50.
Return: 1.71

---

species: Bos taurus; test: Inhibition of calf thymus DNA topoisomerase I assessed as relaxation of supercoiled DNA pBR322 at 100 ug/ml after 30 mins by agarose gel electrophoresis relative to camptothecin
Activity calls are given as the source filed them. No cut-off for these calls is given here.
Give one outcome, nothing more. List: active, inactive

Here's what some known entries look like.
smilesRepr	group
CCOC(=O)CCNc1nc(-c2ccccc2)nc2ccccc12.Cl	inactive
CN1CCCN(c2nc(-c3ccccc3)nc3ccccc23)CC1	active
CC(C)Nc1nc(-c2ccccc2)nc2ccccc12	active
COCCNc1nc(-c2ccccc2)nc2ccccc12	active

Enquiry: Recorded test outcome, item c1ccc(-c2nc(NC3CCCCC3)c3ccccc3n2)cc1
Return: active

Enquiry: // outcome(item) with item = COC(=O)CNc1nc(-c2ccccc2)nc2ccccc12
Return: active

Enquiry: Could you check what this test reported for CN(C)CCN(C)c1nc(-c2ccccc2)nc2ccccc12 ?
Return: active

Enquiry: What outcome does the record of this test show for CN1CCN(c2nc(-c3ccccc3)nc3ccccc23)CC1 ?
Return: active

Enquiry: Tell me the recorded outcome of this test for CNc1nc(-c2ccccc2)nc2ccccc12 .
Return: inactive

Enquiry: Hi, do you know how c1ccc(-c2nc(N3CCOCC3)c3ccccc3n2)cc1 came out in this test?
Return: active
